testTarget: hNaV1.1 (SCN1A) (Homo sapiens)
measurementProtocol: Use-dependent inhibition of the CNS NaV1.1 sodium channel
Format: cell-based
measurementConditions: % inhibition, use-dependent block at 10 uM; 25 Hz; read-out: Nav1.1 UDB 25 Hz 10 uM
endpointLabel: inhibition at 10 µM (%)

Cc1ccnc(CN2Cc3cc(-c4ccc(OC(F)(F)F)cc4C)ccc3OC2=O)n1 :: 61.4
Cc1cc(OC(F)(F)F)ccc1-c1ccc2c(c1)CN(Cc1ccccn1)C(=O)O2 :: 75.2
CC1c2cc(-c3ccc(Cl)c(F)c3)ccc2OC(=O)N1Cc1ncccn1 (centres unmarked) :: 81.1
Cc1cnc(CN2Cc3cc(-c4ccc(C(F)(F)F)cc4)ccc3OC2=O)nc1 :: 88.8
O=C1Oc2ccc(-c3ccc(C(F)(F)F)cc3)cc2CN1Cc1ncccn1 :: 76.5
CCCOc1cc(OC(F)(F)F)ccc1-c1ccc2c(c1)CN(Cc1ncccn1)C(=O)O2 :: 67.4
COc1cc(OC(F)(F)F)ccc1-c1ccc2c(c1)CN(Cc1nc(C)cs1)C(=O)O2 :: 68.7
O=C1Oc2ccc(-c3ccc(OC(F)(F)F)cc3)cc2CN1Cc1ccccn1 :: 82

###

As shown below, each of these molecules has a reported inhibition at 10 µM value.
testTarget: hNaV1.2 (SCN2A) (Homo sapiens)
Construct: expressed in transfected cells
Sequence (Q99250 whole entry): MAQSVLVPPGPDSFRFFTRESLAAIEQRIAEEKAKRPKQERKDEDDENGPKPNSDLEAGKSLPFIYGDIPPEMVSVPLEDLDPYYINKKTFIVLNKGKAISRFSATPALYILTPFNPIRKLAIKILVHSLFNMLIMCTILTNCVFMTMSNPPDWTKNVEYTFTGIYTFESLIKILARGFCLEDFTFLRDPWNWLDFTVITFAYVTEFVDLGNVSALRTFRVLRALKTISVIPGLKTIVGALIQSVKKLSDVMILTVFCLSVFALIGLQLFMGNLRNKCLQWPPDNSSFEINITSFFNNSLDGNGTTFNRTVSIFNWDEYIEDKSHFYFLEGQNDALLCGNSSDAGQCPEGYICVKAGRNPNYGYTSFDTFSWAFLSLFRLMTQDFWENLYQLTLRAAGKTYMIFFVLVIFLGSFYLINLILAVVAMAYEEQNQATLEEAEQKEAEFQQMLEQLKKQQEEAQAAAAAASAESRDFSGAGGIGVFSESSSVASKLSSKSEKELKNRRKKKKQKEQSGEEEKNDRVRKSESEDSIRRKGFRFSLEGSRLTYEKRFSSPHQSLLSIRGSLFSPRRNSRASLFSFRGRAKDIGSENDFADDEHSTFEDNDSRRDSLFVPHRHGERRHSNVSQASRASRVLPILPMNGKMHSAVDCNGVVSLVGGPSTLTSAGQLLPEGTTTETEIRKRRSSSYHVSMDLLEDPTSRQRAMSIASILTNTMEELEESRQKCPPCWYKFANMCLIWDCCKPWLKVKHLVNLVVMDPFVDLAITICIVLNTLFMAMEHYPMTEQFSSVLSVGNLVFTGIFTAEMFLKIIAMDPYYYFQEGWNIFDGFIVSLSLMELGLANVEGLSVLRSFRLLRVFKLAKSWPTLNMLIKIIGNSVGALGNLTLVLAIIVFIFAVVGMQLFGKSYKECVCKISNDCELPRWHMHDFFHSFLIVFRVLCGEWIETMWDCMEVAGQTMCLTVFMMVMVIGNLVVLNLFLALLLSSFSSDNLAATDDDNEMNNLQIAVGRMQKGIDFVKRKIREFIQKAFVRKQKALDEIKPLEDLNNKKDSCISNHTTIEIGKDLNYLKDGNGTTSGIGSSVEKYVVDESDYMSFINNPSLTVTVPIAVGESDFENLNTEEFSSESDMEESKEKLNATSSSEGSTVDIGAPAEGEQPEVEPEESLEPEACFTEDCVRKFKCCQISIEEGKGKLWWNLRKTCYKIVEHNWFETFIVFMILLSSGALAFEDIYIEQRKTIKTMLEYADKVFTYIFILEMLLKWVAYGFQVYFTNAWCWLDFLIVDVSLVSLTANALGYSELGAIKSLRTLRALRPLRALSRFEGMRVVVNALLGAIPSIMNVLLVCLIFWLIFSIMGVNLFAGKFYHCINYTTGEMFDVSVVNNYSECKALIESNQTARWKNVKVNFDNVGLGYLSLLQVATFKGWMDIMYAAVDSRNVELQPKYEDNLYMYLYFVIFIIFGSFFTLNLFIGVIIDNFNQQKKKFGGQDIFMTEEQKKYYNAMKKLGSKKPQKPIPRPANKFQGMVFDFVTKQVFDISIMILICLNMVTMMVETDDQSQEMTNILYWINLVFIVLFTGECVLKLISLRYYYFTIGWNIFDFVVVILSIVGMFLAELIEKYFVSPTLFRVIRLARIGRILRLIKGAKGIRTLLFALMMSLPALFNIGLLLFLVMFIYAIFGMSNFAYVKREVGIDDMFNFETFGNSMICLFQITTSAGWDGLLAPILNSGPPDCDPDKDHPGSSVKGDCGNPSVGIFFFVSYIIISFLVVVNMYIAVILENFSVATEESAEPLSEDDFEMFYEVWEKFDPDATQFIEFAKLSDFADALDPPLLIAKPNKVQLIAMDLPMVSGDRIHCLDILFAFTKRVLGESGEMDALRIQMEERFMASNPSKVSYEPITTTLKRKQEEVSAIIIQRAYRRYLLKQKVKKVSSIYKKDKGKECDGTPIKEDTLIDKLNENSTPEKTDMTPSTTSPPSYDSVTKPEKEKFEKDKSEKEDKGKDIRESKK
Sequence (Q07699 19-218 partner): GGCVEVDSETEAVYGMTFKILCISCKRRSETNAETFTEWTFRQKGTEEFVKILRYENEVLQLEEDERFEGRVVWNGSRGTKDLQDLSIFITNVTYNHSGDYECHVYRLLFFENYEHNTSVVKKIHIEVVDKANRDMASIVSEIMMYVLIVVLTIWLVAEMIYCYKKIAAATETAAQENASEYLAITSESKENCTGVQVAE
Sequence (O60939 30-215 partner): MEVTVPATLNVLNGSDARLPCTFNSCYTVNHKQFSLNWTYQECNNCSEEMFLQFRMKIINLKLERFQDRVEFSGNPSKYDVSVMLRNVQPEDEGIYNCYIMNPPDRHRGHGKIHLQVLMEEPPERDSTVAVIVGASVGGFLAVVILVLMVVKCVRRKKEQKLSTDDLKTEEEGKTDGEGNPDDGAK
measurementProtocol: Use-dependent inhibition of the CNS NaV1.2 sodium channel
Assay type: cell-based
measurementConditions: HEK-293; % inhibition, use-dependent block at 10 uM; 25 Hz; read-out: Nav1.2 UDB 25 Hz 10 uM
endpointLabel: inhibition at 10 µM (%)

CCCOc1cc(C(F)(F)F)ccc1-c1ccc2c(c1)CN(Cc1ncccn1)C(=O)O2 :: 80.6
Cc1ccnc(CN2Cc3cc(-c4ccc(C(F)(F)F)cc4)ccc3OC2=O)n1 :: 79.6
CC1c2cc(-c3ccc(Cl)c(F)c3)ccc2OC(=O)N1Cc1ncccn1 (stereo not drawn) :: 77.2

###

testTarget: wild-type human cardiac sodium channel, hNaV 1.5 (Late INa) (Homo sapiens)
Sequence (Q14524 whole entry): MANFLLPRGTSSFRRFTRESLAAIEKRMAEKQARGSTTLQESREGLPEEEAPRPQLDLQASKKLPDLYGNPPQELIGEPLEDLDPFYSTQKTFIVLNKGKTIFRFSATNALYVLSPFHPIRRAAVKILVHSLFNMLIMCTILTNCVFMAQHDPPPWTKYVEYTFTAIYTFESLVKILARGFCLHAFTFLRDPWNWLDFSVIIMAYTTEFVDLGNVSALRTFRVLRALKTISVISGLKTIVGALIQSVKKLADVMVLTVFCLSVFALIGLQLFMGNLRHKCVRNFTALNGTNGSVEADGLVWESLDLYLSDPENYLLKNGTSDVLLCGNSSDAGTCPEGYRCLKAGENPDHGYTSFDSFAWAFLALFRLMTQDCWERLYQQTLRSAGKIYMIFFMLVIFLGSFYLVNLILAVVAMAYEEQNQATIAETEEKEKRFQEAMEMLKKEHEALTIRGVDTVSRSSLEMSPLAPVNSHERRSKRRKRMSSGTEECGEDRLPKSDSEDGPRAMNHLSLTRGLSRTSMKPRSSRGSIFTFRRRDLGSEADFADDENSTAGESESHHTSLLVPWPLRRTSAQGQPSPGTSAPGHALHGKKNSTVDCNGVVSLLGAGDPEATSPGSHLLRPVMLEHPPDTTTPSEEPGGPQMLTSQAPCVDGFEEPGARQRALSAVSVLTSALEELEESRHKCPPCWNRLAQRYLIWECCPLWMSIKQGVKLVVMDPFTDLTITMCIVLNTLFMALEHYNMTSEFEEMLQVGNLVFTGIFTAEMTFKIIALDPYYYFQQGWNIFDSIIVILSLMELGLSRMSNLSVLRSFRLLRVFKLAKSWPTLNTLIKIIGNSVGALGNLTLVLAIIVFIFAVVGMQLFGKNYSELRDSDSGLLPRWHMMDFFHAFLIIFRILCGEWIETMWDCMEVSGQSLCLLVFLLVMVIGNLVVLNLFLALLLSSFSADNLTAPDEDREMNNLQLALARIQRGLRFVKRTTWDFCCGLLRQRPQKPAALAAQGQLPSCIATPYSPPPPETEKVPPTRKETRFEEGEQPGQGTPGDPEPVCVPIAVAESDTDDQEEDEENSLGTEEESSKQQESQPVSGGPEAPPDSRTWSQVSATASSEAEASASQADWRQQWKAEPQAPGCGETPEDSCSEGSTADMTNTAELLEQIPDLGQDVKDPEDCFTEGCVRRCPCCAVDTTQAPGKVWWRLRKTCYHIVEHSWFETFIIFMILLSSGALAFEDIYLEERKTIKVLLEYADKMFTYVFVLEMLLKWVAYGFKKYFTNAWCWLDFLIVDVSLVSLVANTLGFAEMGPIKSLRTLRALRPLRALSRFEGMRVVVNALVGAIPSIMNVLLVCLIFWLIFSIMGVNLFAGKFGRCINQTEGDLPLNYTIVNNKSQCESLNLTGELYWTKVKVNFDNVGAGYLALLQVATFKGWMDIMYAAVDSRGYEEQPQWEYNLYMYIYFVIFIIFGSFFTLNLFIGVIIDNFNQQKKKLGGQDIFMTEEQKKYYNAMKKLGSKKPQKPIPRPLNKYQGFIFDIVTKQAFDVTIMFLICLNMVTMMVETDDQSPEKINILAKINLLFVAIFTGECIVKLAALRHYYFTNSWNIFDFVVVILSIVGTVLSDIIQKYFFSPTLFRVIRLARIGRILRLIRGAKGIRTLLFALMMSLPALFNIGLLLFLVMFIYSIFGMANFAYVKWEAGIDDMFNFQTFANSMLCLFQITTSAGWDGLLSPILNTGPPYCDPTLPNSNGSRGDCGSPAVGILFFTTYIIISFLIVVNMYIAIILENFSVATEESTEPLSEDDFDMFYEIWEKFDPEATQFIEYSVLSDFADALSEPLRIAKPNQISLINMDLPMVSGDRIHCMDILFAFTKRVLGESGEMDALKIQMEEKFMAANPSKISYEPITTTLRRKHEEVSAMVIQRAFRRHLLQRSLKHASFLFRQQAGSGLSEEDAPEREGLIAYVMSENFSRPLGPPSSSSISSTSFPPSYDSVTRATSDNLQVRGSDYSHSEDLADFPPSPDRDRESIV
measurementProtocol: Late INa screening assay (whole cell patch clamp, QPatch, Tefluthrin-induced late current)
Format: cell-based
measurementConditions: HEK293, % inhibition (percent block of late INa) at 1 uM; HEK293 hNaV1.5; 10 μM Tefluthrin; read-out: Nav1.5 Late INa 1 uM
Classification field. Basis: inhibition at 1 µM. Definitions: lower segment (below 40%), middle segment (40% to below 50%), upper segment (50% or more)

CCCOc1cc(C(F)(F)F)ccc1-c1ccc2c(c1)CN(CCc1ncccn1)C(=O)O2 :: upper segment
O=C1Oc2cc3c(cc2CN1Cc1ncccn1)-c1ccc(OC(F)(F)F)cc1C3 :: lower segment
CC1c2cc(-c3cccc(OC(F)(F)F)c3)ccc2OC(=O)N1Cc1ncccn1 (centres unmarked) :: lower segment
O=C1Oc2ccc(-c3ccc(C(F)(F)F)cc3F)cc2CN1Cc1ncccn1 :: middle segment
Cc1ccnc(CN2Cc3cc(-c4ccc(C(F)(F)F)cc4)ccc3OC2=O)n1 :: upper segment
Cc1cc(-c2ccc3c(c2)CN(Cc2ncccn2)C(=O)O3)ccc1OC(F)(F)F :: lower segment
Cc1csc(CN2Cc3cc(-c4ccc(OC(F)(F)F)cc4)ccc3OC2=O)n1 :: upper segment
Cc1ccnc(CN2Cc3cc(-c4ccc(OC(F)(F)F)cc4)ccc3OC2=O)n1 :: upper segment
Cc1csc(CN2Cc3cc(-c4ccc(OC(F)(F)F)cc4Cl)ccc3OC2=O)n1 :: lower segment
COc1cc(OC(F)(F)F)ccc1-c1ccc2c(c1)CN(Cc1nccc(C)n1)C(=O)O2 :: lower segment
COc1cc(C(F)(F)F)ccc1-c1ccc2c(c1)CN(Cc1ncc(C)cn1)C(=O)O2 :: middle segment
O=C1Oc2ccc(-c3ccc(C(F)(F)F)cc3)cc2CN1Cc1ccccn1 :: upper segment
O=C1Oc2ccc(-c3ccc4c(c3)OC(F)(F)O4)cc2CN1Cc1ncccn1 :: lower segment
COc1cc(OC(F)(F)F)ccc1-c1ccc2c(c1)CN(Cc1nc(C)cs1)C(=O)O2 :: middle segment
